tested on: MCF7 complex spheroid growth, % test/control; assay: Anticancer human tumor MCF7 cell line growth inhibition [Asc]; conditions: second compound 3 µM; first compound 0.1 µM; stronger effect = lower value;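 further: spheroids exposed to compounds for 7 days; 100% = DMSO vehicle control wells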
Property Measured: viability, T/C (%)
Numbers only, in %.

Lab note: need viability, T/C for Cn1ncnc1[C@H]1c2n[nH]c(=O)c3cc(F)cc(c23)N[C@@H]1c1ccc(F)cc1 + CCN1C(C(=O)NC23CCC(C(=O)O)(CC2)CC3)C(c2cccc(Cl)c2F)C2(C(=O)Nc3cc(Cl)ccc32)C12CCCCC2 on MCF7 complex spheroid growth, % test/control, anyone have it?
14.6

Do the same for O=C(c1ccc(F)c(F)c1Nc1ccc(I)cc1F)N1CC(O)([C@@H]2CCCCN2)C1 + CCN1C(C(=O)NC23CCC(C(=O)O)(CC2)CC3)C(c2cccc(Cl)c2F)C2(C(=O)Nc3cc(Cl)ccc32)C12CCCCC2 please
12.3

Do the same for CNC(C)C(=O)NC1CN(S(=O)(=O)c2cccc(S(=O)(=O)N3CCC4CCC(C(=O)NC(c5ccccc5)c5ccccc5)N4C(=O)C(NC(=O)C(C)NC)C3)c2)CCC2CCC(C(=O)NC(c3ccccc3)c3ccccc3)N2C1=O (stereo not given) + CCN1C(C(=O)NC23CCC(C(=O)O)(CC2)CC3)C(c2cccc(Cl)c2F)C2(C(=O)Nc3cc(Cl)ccc32)C12CCCCC2 please
9.21

Do the same for C=CC(=O)N1CCN(c2nc(=O)n(-c3c(C)ccnc3C(C)C)c3nc(-c4c(O)cccc4F)c(F)cc23)C(C)C1 (stereo not given) + CCN1C(C(=O)NC23CCC(C(=O)O)(CC2)CC3)C(c2cccc(Cl)c2F)C2(C(=O)Nc3cc(Cl)ccc32)C12CCCCC2 please
17.1

Do the same for C=C(F)C(=O)N1CCN(c2nc(OCC3CCCN3C)nc3c2CCN(c2cccc4cccc(Cl)c24)C3)CC1CC#N (stereo not given) + CCN1C(C(=O)NC23CCC(C(=O)O)(CC2)CC3)C(c2cccc(Cl)c2F)C2(C(=O)Nc3cc(Cl)ccc32)C12CCCCC2 please
15.4

Do the same for CCN1CCN(Cc2ccc(Nc3ncc(F)c(-c4cc(F)c5nc(C)n(C(C)C)c5c4)n3)nc2)CC1 + CCN1C(C(=O)NC23CCC(C(=O)O)(CC2)CC3)C(c2cccc(Cl)c2F)C2(C(=O)Nc3cc(Cl)ccc32)C12CCCCC2 please
14.6

Do the same for C#Cc1c(F)ccc2cc(O)cc(-c3ncc4c(N5CC6CCC(C5)N6)nc(OCC56CCCN5CC(F)C6)nc4c3F)c12 (stereo not given) + CCN1C(C(=O)NC23CCC(C(=O)O)(CC2)CC3)C(c2cccc(Cl)c2F)C2(C(=O)Nc3cc(Cl)ccc32)C12CCCCC2 please
11.4

Do the same for NC1CCC(NC2CC2c2ccccc2)CC1 (stereo not given) + CCN1C(C(=O)NC23CCC(C(=O)O)(CC2)CC3)C(c2cccc(Cl)c2F)C2(C(=O)Nc3cc(Cl)ccc32)C12CCCCC2 please
19.6

Do the same for COc1c(OCCCN2CCOCC2)ccc2c3n(c(=NC(=O)c4cnc(N)nc4)nc12)CCN3 + CCN1C(C(=O)NC23CCC(C(=O)O)(CC2)CC3)C(c2cccc(Cl)c2F)C2(C(=O)Nc3cc(Cl)ccc32)C12CCCCC2 please
6.59

Let us examine a further case.
Lab note: need viability, T/C for O=C(c1cc(Cc2n[nH]c(=O)c3ccccc23)ccc1F)N1CCN(C(=O)C2CC2)CC1 + CCN1C(C(=O)NC23CCC(C(=O)O)(CC2)CC3)C(c2cccc(Cl)c2F)C2(C(=O)Nc3cc(Cl)ccc32)C12CCCCC2 on MCF7 complex spheroid growth, % test/control, anyone have it?
16.2

The measured values listed here are drawn from PubChem BioAssay AID1963445.
